Origin of measurements: patent US9493455B2

- Test system: BxPC-3
- procedure-details: In vitro cell proliferation assay (MTT)
- Format: cell-based
- condition-description: Homo sapiens, BXPC-3, 72 h
Listed here are compounds together with their documented EC50.
property: EC50

compound	target	property	observed-result
CCN(CC)CCNC(=O)c1c(C)[nH]c(/C=C2\C(=O)Nc3ccc(F)cc32)c1C [Sunitinib, reference compound]	BxPC-3	EC50	≥ 1000 nM
COC(=O)c1cc2cc(NCc3cc(NC(=O)c4cccc(Br)c4)ccc3C)cnc2[nH]1 [OR0608]	BxPC-3	EC50	100 to 1000 nM
COC(=O)c1cc2cc(NCc3cc(NC(=O)c4ccc5[nH]nnc5c4)ccc3C)cnc2[nH]1 [OR0616]	BxPC-3	EC50	≥ 1000 nM
C#Cc1cccc(Nc2ncnc3cc(OCCOC)c(OCCOC)cc23)c1 [Erlotinib, reference compound]	BxPC-3	EC50	≥ 1000 nM
